- Test Target: Human AMPK α2β2γ1 (Homo sapiens, UniProt O43741+P54646)
- Construct: The full length cDNAs of human AMPK β2 (NM_005399.3) and human AMPK α2 (NM_006252.3); The full length cDNAs of human AMPK β2 (NM_005399.3); the full length cDNA of human AMPK γ1 (NM_002733.3) had been inserted into pET28b(+); 6×His (N); made in house; host or cells: Escherichia coli BL21 CodonPlus (DE3)-RIL
- Sequence (P54646 whole entry): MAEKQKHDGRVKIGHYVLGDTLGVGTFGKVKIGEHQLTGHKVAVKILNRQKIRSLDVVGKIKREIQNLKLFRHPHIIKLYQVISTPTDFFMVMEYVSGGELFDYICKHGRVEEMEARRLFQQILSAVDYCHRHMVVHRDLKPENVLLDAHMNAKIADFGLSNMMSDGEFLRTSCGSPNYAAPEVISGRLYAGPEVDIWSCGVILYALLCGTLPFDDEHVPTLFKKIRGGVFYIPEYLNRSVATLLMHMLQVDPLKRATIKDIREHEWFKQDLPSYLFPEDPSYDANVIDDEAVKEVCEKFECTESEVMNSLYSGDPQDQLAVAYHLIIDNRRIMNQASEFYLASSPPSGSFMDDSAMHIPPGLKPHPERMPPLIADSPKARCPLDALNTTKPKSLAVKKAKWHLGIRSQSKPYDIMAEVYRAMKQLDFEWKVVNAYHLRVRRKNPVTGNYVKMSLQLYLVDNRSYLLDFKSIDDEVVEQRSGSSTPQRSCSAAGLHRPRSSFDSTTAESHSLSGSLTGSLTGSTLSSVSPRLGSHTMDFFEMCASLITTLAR
- Sequence (O43741 whole entry): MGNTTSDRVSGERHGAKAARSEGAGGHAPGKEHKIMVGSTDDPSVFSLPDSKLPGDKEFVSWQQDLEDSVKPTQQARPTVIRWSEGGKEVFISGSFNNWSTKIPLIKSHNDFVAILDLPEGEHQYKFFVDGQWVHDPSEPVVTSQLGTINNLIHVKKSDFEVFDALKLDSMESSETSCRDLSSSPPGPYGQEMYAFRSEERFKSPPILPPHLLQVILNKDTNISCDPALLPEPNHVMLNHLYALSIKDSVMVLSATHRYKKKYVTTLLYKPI
- Sequence (P54619 whole entry partner): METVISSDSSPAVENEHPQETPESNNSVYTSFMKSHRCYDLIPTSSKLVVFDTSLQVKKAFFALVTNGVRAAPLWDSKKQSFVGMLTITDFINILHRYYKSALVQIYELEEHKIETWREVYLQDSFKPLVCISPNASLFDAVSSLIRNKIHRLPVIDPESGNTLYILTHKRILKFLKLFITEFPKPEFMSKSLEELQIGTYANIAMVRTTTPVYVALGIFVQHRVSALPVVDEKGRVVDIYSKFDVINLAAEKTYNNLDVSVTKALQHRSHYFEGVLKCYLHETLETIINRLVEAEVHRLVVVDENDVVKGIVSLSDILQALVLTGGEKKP
- Assay Remarks: Test Example 2: activation of phosphorylated human AMPK α2β2γ1 (mobility-shift kinase assay, FL-Peptide 7)
- Type: biochemical
- Settings: compound concentration showing 150% relative to the control (100%); human AMPK α2β2γ1 phosphorylated with CaMKK2
I'd appreciate it if you could supply log10 EC150 values for the items below.
Scale: log10; quantity: EC150; unit before log: nM

Query log10 EC150 on Human AMPK α2β2γ1 (Homo sapiens, UniProt O43741+P54646) for O=C(c1ccc(-c2ccc(-c3nc4cc(O[C@@H]5CO[C@H](CO)C5)[nH]c4cc3F)cc2)cc1)N1CCCC1 [Compound I-2-49] -0.06

Query log10 EC150 on Human AMPK α2β2γ1 (Homo sapiens, UniProt O43741+P54646) for CCOC(=O)N[C@H]1CC[C@H](c2ccc(-c3nc4cc(O[C@@H]5CO[C@H]6[C@@H]5OC[C@H]6O)[nH]c4cc3F)cc2)CC1 [Compound I-1-14] 1.38

Query log10 EC150 on Human AMPK α2β2γ1 (Homo sapiens, UniProt O43741+P54646) for CNCCOc1ccc(-c2ccc(-c3nc4cc(O[C@@H]5CO[C@H]6[C@@H]5OC[C@H]6O)[nH]c4cc3F)cc2)cc1 [Compound I-1-69] 0.20

Query log10 EC150 on Human AMPK α2β2γ1 (Homo sapiens, UniProt O43741+P54646) for COC(=O)NC1CC=C(c2ccc(-c3nc4cc(O[C@@H]5CO[C@H]6[C@@H]5OC[C@H]6O)[nH]c4cc3F)cc2)CC1 (some centres unmarked) [Compound I-1-22] 0.58

Query log10 EC150 on Human AMPK α2β2γ1 (Homo sapiens, UniProt O43741+P54646) for COc1cc(-c2ccc(N=S3(=O)CCCC3)cc2)ccc1-c1nc2cc(O[C@@H]3CO[C@H]4[C@@H]3OC[C@H]4O)[nH]c2cc1F [Compound I-1-20] 0.92

* * *

- Test Target: Human AMPK α2β2γ1 (Homo sapiens, UniProt O43741+P54646)
- Construct: The full length cDNAs of human AMPK β2 (NM_005399.3) and human AMPK α2 (NM_006252.3); The full length cDNAs of human AMPK β2 (NM_005399.3); the full length cDNA of human AMPK γ1 (NM_002733.3) had been inserted into pET28b(+); 6×His (N); made in house; host or cells: Escherichia coli BL21 CodonPlus (DE3)-RIL
- Assay Remarks: Test Example 2: activation of phosphorylated human AMPK α2β2γ1 (mobility-shift kinase assay, FL-Peptide 7)
- Type: biochemical
- Settings: compound concentration showing 150% relative to the control (100%); human AMPK α2β2γ1 phosphorylated with CaMKK2
I'd appreciate it if you could supply EC150 values for the items below.
Please state the figure in nM; there is no need to write the unit.

Query EC150 on Human AMPK α2β2γ1 (Homo sapiens, UniProt O43741+P54646) for COCCNC(=O)c1ccc(-c2ccc(-c3nc4cc(O[C@@H]5CO[C@H](CO)C5)[nH]c4cc3F)cc2)cc1 0.5

Query EC150 on Human AMPK α2β2γ1 (Homo sapiens, UniProt O43741+P54646) for CS(=O)(=O)c1ccc(-c2ccc(-c3nc4cc(O[C@@H]5CO[C@H](CO)C5)[nH]c4cc3F)cc2)nc1 0.99

Query EC150 on Human AMPK α2β2γ1 (Homo sapiens, UniProt O43741+P54646) for CNC(=O)CCOc1ccc(-c2ccc(-c3nc4cc(O[C@@H]5CO[C@H]6[C@@H]5OC[C@H]6O)[nH]c4cc3F)cc2)cc1 1.7
